# Target or test system: GPR6 (Homo sapiens)
# Construct: expressed in transfected cells; host or cells: CHO cells
# Method: GPR6 antagonist functional cAMP assay (LANCE Ultra cAMP TR-FRET, CHO cells stably expressing GPR6)
# Format: cell-based
# Applied conditions: procedure as described in Example 24
Here, each record is paired with measured IC50 data.

{"Substance smiles": "CC(=O)N1CCc2nc(N3CCC(Oc4ccc(F)cc4F)CC3)c(-c3cnc4n3CCN(C(C)=O)C4)nc2C1", "Obs value": "1 to 30 µM"}
{"Substance smiles": "Fc1ccc(OC2CCN(c3nc4ccncc4nc3-c3ncc[nH]3)CC2)c(F)c1", "Obs value": "1 to 30 µM"}
{"Substance smiles": "CNC(=O)Cn1cc(-c2nc3c(nc2N2CCC(Oc4ccc(F)cc4F)CC2)CCN(C(C)=O)C3)cn1", "Obs value": "1 to 30 µM"}

Ask: Given the entry `CC(=O)N1CCc2nc(N3CCC(Oc4ccc(F)cc4F)CC3)c(-c3cncc(=O)[nH]3)nc2C1` , what IC50 was observed with GPR6 (Homo sapiens)?
Result: 1 to 30 µM

Ask: Given the entry `Fc1ccc(Cl)cc1CN1CCN(c2nc3cnccc3nc2-c2ncc[nH]2)CC1` , what IC50 was observed with GPR6 (Homo sapiens)?
Result: 1 to 30 µM

---

Here, each record is paired with measured IC50 data.
# Target or test system: GPR6 (Homo sapiens, UniProt P46095)
# Construct: expressed in transfected cells; host or cells: CHO cells
# Sequence (P46095 whole entry): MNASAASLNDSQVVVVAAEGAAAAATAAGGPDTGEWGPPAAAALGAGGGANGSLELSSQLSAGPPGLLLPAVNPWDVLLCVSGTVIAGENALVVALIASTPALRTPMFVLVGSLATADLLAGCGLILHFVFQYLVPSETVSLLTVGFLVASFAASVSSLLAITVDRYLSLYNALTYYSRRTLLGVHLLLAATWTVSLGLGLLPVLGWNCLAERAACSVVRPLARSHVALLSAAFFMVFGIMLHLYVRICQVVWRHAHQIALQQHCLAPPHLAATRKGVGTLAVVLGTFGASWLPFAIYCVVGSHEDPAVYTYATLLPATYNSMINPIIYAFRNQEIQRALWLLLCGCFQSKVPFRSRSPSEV
# Method: GPR6 antagonist functional cAMP assay (LANCE Ultra cAMP TR-FRET, CHO cells stably expressing GPR6)
# Format: cell-based
# Applied conditions: procedure of Example 24
# Experimental: Example 56. GPR6 and GPR3 Antagonist Functional cAMP Assay CHO cells stably expressing GPR6 or GPR3 receptors were dissociated from cell culture flasks and incubated for 2 h at 37° C. in a 10 cm dish in a humidified incubator. […] To measure cAMP levels, LANCE® Ultra cAMP assay (Perkin Elmer), a homogeneous time-resolved fluorescence resonance energy transfer (TR-FRET) immunoassay was used following manufacturer's recommendations. […] FRET values were reported as readings obtained at 665 nm. […]

A selection of reference data follows.
{"Compound": "COc1ccc(CN2CCN(c3nc4c(nc3-c3cnn(C)c3)CN(C(C)=O)CC4)CC2)cc1F", "IC50": "1 to 30 µM"}
{"Compound": "CC(=O)N1CCc2nc(N3CCN(Cc4ccc(OC(F)F)cc4F)CC3)c(-c3cnn(C)c3)nc2C1", "IC50": "1 to 30 µM"}
{"Compound": "CC(C)(O)[C@](C)(O)c1cc2nc(-c3cnn(CF)c3)c(N3CCN(Cc4ccc(F)cc4F)CC3)nc2cn1 (single isomer, unassigned)", "IC50": "0.1 to 1 µM"}

Ask: Given the entry `CC(C)(O)Cc1cc2nc(N3CCC(Oc4ccc(F)cc4F)CC3)c(-c3cnn(CF)c3)nc2cn1` , what IC50 was observed with GPR6 (Homo sapiens, UniProt P46095)?
Result: 0.1 to 1 µM

---

# Target or test system: GPR6 (Homo sapiens, UniProt P46095)
# Construct: expressed in transfected cells; host or cells: CHO cells
# Method: GPR6 antagonist functional cAMP assay (LANCE Ultra cAMP TR-FRET, CHO cells stably expressing GPR6)
# Format: cell-based
# Applied conditions: CHO cells stably expressing GPR6, cAMP assay (Example 24)
Observation type: IC50

A selection of reference data follows.
{"Molecule": "Cn1cc(-c2nc3cnccc3nc2N2CCN(CC3CCCC(F)(F)C3)CC2)cn1 (centres unmarked)", "IC50": "1000 to 30000 nM"}
{"Molecule": "Fc1ccc(OC2CCN(c3nc4c(nc3-c3cn[nH]c3)CNCC4)CC2)c(F)c1", "IC50": "1000 to 30000 nM"}
{"Molecule": "CCn1cc(-c2nc3c(nc2N2CCC(Oc4ccc(F)cc4F)CC2)CCN(C(=O)C2CC(F)(F)CN2)C3)cn1 (centres unmarked)", "IC50": "100 to 1000 nM"}
{"Molecule": "CNC(=O)C(C)N1CCc2nc(N3CCC(Oc4ccc(F)cc4F)CC3)c(-c3cnn(C4CCCCO4)c3)nc2C1 (centres unmarked)", "IC50": "1000 to 30000 nM"}
{"Molecule": "CC(=O)N1CCc2nc(N3CCC(Oc4ccc(F)cc4F)CC3)c(-c3cc[nH]c(=O)c3)nc2C1", "IC50": "1000 to 30000 nM"}

Ask: Which value of IC50 has been reported for `CC(=O)N1CCc2nc(N3CCC(Oc4ccc(F)cc4F)CC3)c(-c3cccn(C)c3=O)nc2C1` in the records?
Result: 1000 to 30000 nM

Ask: Which value of IC50 has been reported for `CC(=O)N1CCc2nc(N3CCC(Oc4cc(C#N)ccc4F)CC3)c(-c3cnn(C)c3)nc2C1` in the records?
Result: 1000 to 30000 nM

Ask: Which value of IC50 has been reported for `CCn1cc(-c2nc3c(nc2N2CCC(Oc4ccc(F)cc4F)CC2)CCN(C(C)=O)C3)cn1` in the records?
Result: < 100 nM

---

# Target or test system: GPR3 (Homo sapiens)
# Construct: expressed in transfected cells; host or cells: CHO cells
# Sequence (P46089 whole entry, species assumed): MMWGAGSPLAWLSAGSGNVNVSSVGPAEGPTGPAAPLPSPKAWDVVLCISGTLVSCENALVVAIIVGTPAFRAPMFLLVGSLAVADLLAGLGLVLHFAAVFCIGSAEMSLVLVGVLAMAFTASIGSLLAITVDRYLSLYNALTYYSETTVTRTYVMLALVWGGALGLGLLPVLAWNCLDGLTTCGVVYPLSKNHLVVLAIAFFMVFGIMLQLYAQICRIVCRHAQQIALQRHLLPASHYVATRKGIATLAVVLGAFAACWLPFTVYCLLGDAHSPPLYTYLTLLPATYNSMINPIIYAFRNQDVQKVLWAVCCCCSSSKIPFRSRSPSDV
# Method: GPR3 antagonist functional cAMP assay (LANCE Ultra cAMP TR-FRET, CHO cells stably expressing GPR3)
# Type: cell-based
# Applied conditions: CHO cells stably expressing GPR3, cAMP assay (Example 24)
pIC50: −log10 of the molar value.
Observation type: pIC50

{"Molecule": "Cn1cc(-c2nc3cnccc3nc2N2CCN(CC3CCOCC3)CC2)cn1", "Target or test system": "GPR3 (Homo sapiens)", "pIC50": "4.52 to 6.00"}

Ask: Which value of pIC50 has been reported for CNC(=O)C(C)N1CCc2nc(N3CCC(Oc4ccc(F)cc4F)CC3)c(-c3cn[nH]c3)nc2C1 (centres unmarked) in the records?
Result: 4.52 to 6.00

Ask: Which value of pIC50 has been reported for CC(=O)N1CCc2nc(N3CCC(Oc4ccc(F)cc4F)CC3)c(C3CCCOC3)nc2C1 (centres unmarked) in the records?
Result: 4.52 to 6.00

---

# Target or test system: GPR6 (Homo sapiens, UniProt P46095)
# Construct: expressed in transfected cells; host or cells: CHO cells
# Method: GPR6 antagonist functional cAMP assay (LANCE Ultra cAMP TR-FRET, CHO cells stably expressing GPR6)
# Assay type: cell-based
# Applied conditions: procedure of Example 24
Observation type: IC50

{"Molecule": "CC(C)(O)C(C)(O)c1cc2nc(N3CCN(Cc4ccc(F)cc4F)CC3)c(-c3cnn(C(F)F)c3)nc2cn1 (stereo not shown)", "Target or test system": "GPR6 (Homo sapiens, UniProt P46095)", "IC50": "100 to 1000 nM"}

Ask: Which value of IC50 has been reported for CC(C)(O)[C@@H](O)c1cc2nc(N3CCN(Cc4ccccc4F)CC3)c(-c3cnn(CF)c3)nc2cn1 (single isomer, unassigned) in the records?
Result: < 100 nM

Ask: Which value of IC50 has been reported for `CC(C)(O)Cc1cc2nc(N3CCC(Oc4ccc(F)cc4F)CC3)c(-c3cnn(C(F)F)c3)nc2cn1` in the records?
Result: 100 to 1000 nM

Ask: Which value of IC50 has been reported for `COc1ccc(CNc2nc(-c3nc4c(nc3N3CCC(Cc5cc(F)ccc5F)CC3)CCN(C(C)=O)C4)ccc2F)cc1` in the records?
Result: 1000 to 30000 nM

Ask: Which value of IC50 has been reported for CC(C)(O)[C@H](O)c1cc2nc(N3CCN(Cc4ccccc4F)CC3)c(-c3cnn(C(F)F)c3)nc2cn1 (single isomer, unassigned) in the records?
Result: 100 to 1000 nM

Ask: Which value of IC50 has been reported for CCn1cc(-c2nc3cnc(C(C)(O)C(C)(C)O)cc3nc2N2CCN(Cc3ccc(F)cc3F)CC2)cn1 (stereo not shown) in the records?
Result: 100 to 1000 nM

Ask: Which value of IC50 has been reported for CC(C)(O)C(C)(O)c1cc2nc(-c3cnn(C4CC4)c3)c(N3CCN(Cc4ccc(F)cc4F)CC3)nc2cn1 (stereo not shown) in the records?
Result: 100 to 1000 nM

Ask: Which value of IC50 has been reported for `Cn1cc(-c2nc3c(Cl)nccc3nc2N2CCC(Oc3ccc(F)cc3F)CC2)cn1` in the records?
Result: 100 to 1000 nM

Ask: Which value of IC50 has been reported for `CCn1cc(-c2nc3c(nc2N2CCC(Oc4ccc(F)cc4F)CC2)CCN(C[C@H](O)CO)C3)cn1` in the records?
Result: 100 to 1000 nM

Ask: Which value of IC50 has been reported for CC(C)(O)[C@](C)(O)c1cc2nc(-c3cnn(C(F)F)c3)c(N3CCN(Cc4cc(F)ccc4F)CC3)nc2cn1 (single isomer, unassigned) in the records?
Result: 100 to 1000 nM

Ask: Which value of IC50 has been reported for CC(C)(O)[C@@](C)(O)c1cc2nc(N3CCN(Cc4ccc(F)cc4F)CC3)c(-c3cnn(CF)c3)nc2cn1 (single isomer, unassigned) in the records?
Result: 100 to 1000 nM

Ask: Which value of IC50 has been reported for CCn1cc(-c2nc3cnc([C@@](C)(O)C(C)(C)O)cc3nc2N2CCN(Cc3ccc(F)cc3F)CC2)cn1 (single isomer, unassigned) in the records?
Result: 100 to 1000 nM

Ask: Which value of IC50 has been reported for CC(C)(O)C(C)(O)c1cc2nc(-c3cnn(C(F)F)c3)c(N3CCN(Cc4ccccc4F)CC3)nc2cn1 (stereo not shown) [Compound 684] in the records?
Result: 100 to 1000 nM

Values from patent US20260042755A1
